// reported ΔTm for each item listed
tested on: Nucleic Acid; assay: Binding affinity to 5'-GCGATATATGCG-3' DNA sequence in PBS buffer of pH 7.4 assessed as change in melting temperature by UV-VIS spectrophotometric analysis; type: nucleic-acid assay
Field: numeric (°C). Do not append units.

Consider the reported ΔTm for these compounds:
> print(dat)
                                chem.smiles  property.name  unit  assay.result
1  CN(C)c1ccc(C(=O)Nc2ccc(C(=O)Nc3cc(C(=O)Nc4cc(C(=O)NCCN5CCOCC5)n(C)c4)n(C)c3)cc2)cc1            ΔTm    °C            18
2  COc1cccc(/N=N/c2ccc(C(=O)Nc3cc(C(=O)Nc4cc(C(=O)NCCN5CCOCC5)n(C)c4)n(C)c3)cc2)c1            ΔTm    °C             1
3  Cn1cc(NC(=O)c2cc(NC(=O)c3ccc(NC(=O)c4cnc5ccccc5c4)cc3)cn2C)cc1C(=O)NCCN1CCOCC1            ΔTm    °C            17

Missing value: ΔTm, Nucleic Acid, entry CN(C)c1ccc(/C=C/c2ccc(C(=O)Nc3cc(C(=O)Nc4cc(C(=O)NCCN5CCOCC5)n(C)c4)n(C)c3)cc2)cc1 . Fill in?
2

Missing value: ΔTm, Nucleic Acid, entry CN(C)c1ccc(/N=N/c2ccc(C(=O)Nc3cc(C(=O)Nc4cc(C(=O)NCCN5CCOCC5)n(C)c4)n(C)c3)cc2)cc1 . Fill in?
8

Data origin, for the record: ChEMBL document CHEMBL1909638
